target: C-C chemokine receptor type 5 (Homo sapiens, UniProt P51681); assay: Displacement of […] from human CCR5 receptor coexpressed with Galphai6 in CHO cells after 2 hrs by scintillation counting
Sequence (P51681 whole entry): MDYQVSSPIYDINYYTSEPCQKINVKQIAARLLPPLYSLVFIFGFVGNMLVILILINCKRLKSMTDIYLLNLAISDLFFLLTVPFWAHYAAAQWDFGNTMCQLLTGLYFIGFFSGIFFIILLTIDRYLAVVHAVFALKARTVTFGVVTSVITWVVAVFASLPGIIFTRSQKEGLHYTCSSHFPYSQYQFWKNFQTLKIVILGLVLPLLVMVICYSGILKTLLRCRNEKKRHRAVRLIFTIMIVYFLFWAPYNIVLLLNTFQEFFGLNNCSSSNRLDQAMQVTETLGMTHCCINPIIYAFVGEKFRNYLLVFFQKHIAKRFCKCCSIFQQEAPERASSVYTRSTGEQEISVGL
Classification by IC50 | ranges: low = under 6 nM, mid = from 6 nM up to 30 nM, high = 30 nM and over

INSERT INTO results (compound, assigned_label) VALUES
  ('Cc1nnc(C)n1[C@H]1C[C@@H]2CN(CC[C@H](NC(=O)C3CCOCC3)c3cccc(F)c3)C[C@@H]2C1', 'high'),
  ('Cc1nnc(C)n1[C@H]1C[C@H]2CC[C@@H](C1)N2CC[C@H](NC(=O)C1CCOCC1)c1cccc(F)c1', 'mid'),
  ('Cc1nnc(C)n1[C@H]1C[C@H]2CC[C@@H](C1)N2CC[C@H](NC(=O)C1CC(F)(F)C1)c1cccc(F)c1', 'low'),
  ('Cc1nnc(C)n1[C@H]1C[C@H]2CC[C@@H](C1)N2CC[C@H](NC(=O)C1CCC(F)(F)CC1)c1cccc(F)c1', 'low'),
  ('Cc1nnc(C)n1[C@@H]1C[C@@H]2CN(CC[C@H](NC(=O)C3CCOC3)c3cccc(F)c3)C[C@@H]2C1 (some centres not stated)', 'mid'),
  ('Cc1nnc(C)n1[C@H]1C[C@H]2CC[C@@H](C1)N2CC[C@H](NC(=O)C1CCOC1)c1cccc(F)c1 (some centres not stated)', 'mid'),
  ('Cc1nnc(C)n1C1CCN(CC[C@H](NC(=O)C2CCC(F)(F)CC2)c2cccc(F)c2)CC1', 'high'),
  ('Cc1nnc(C)n1[C@@H]1C[C@@H]2CN(CC[C@H](NC(=O)C3CCC(F)(F)CC3)c3cccc(F)c3)C[C@@H]2C1', 'mid'),
  ('Cc1nnc(C)n1[C@H]1C[C@@H]2CN(CC[C@H](NC(=O)C3CCOC3)c3cccc(F)c3)C[C@@H]2C1 (some centres not stated)', 'high');

---

target: C-C chemokine receptor type 5 (Homo sapiens); experiment: Displacement of […] from human CCR5 receptor coexpressed with Galphai6 in CHO cells after 2 hrs by scintillation counting
pIC50: −log10 of the molar value.
TEST READOUT: pIC50

INSERT INTO measurements (molecule, test_readout, test_value) VALUES
  ('Cc1nnc(C)n1[C@@H]1C[C@@H]2CN(CC[C@H](NC(=O)C3CCOCC3)c3cccc(F)c3)C[C@@H]2C1', 'pIC50', 7.52),
  ('Cc1nnc(C)n1[C@@H]1C[C@@H]2CN(CC[C@H](NC(=O)C3CC(F)(F)C3)c3cccc(F)c3)C[C@@H]2C1', 'pIC50', 8.22),
  ('Cc1nnc(C)n1[C@H]1C[C@@H]2CN(CC[C@H](NC(=O)C3CC(F)(F)C3)c3cccc(F)c3)C[C@@H]2C1', 'pIC50', 8.22);

Numbers sourced from ChEMBL document CHEMBL1154938.
